Study the reported Ki values for Angiopoietin-1 receptor (Homo sapiens) given below; they originate from different publications.

Would you please look over these solved cases?
[
  {
    "smiles-str": "CNc1cncc(-c2c[nH]c(=O)c(NC(=O)c3ccc(N4CCC[C@H]4CN4CCCC4)cc3)c2)n1",
    "value-type": "Ki",
    "endpoint-value": "> 1 µM"
  },
  {
    "smiles-str": "COC(C)(C)CCn1nc(Nc2c(C)cccc2C)c2cnc(Nc3ccc(OCCN4CCCC4)c(F)c3)nc21",
    "value-type": "Ki",
    "endpoint-value": "> 2.5 µM"
  },
  {
    "smiles-str": "Oc1ccc2oc3ncc(O)c(-c4ccccc4)c3c2c1",
    "value-type": "Ki",
    "endpoint-value": "> 1000 µM"
  },
  {
    "smiles-str": "COc1ccc(CNc2ccnc3oc4ccccc4c23)cc1",
    "value-type": "Ki",
    "endpoint-value": "> 1000 µM"
  },
  {
    "smiles-str": "c1ccc(-c2c(-c3ccc(OCCN4CCCC4)cc3)[nH]c3ncnc(NCC4SCCS4)c23)cc1",
    "value-type": "Ki",
    "endpoint-value": "0.2 µM"
  }
]

What does the record list as Ki for Cc1ccc2c(c1)N(Cc1cc(F)cc3c1OCOC3)C(=O)/C2=N\O ? > 10 µM
